target.of.assay: human bradykinin 1 receptor (B1R) (Homo sapiens, UniProt P46663)
Construct: expressed in transfected cells; host or cells: CHO K1 cells
Sequence (P46663 whole entry): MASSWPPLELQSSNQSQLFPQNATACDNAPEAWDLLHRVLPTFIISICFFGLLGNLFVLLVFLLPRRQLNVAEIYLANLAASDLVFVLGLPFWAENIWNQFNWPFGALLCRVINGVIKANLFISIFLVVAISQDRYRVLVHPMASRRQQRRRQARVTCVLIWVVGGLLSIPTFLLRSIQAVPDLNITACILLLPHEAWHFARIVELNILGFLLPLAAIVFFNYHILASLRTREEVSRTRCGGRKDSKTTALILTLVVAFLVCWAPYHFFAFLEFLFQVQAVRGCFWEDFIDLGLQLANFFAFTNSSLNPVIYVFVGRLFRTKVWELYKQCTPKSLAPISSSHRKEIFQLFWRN
experimental.details: Functional investigation on the human bradykinin 1 receptor (B1R), Ca2+ FLIPR assay in CHO K1 hB1R cells
Type: cell-based
measurement.context: B1R antagonism human; test substance 10 μM; Ca2+ FLIPR, CHO K1 hB1R cells
Label scheme for B1R Ant. h [10 μM] % Inhibition: lower than 50% is no (0), 50% and above is yes (1).

Q. // inclusive: B1R Ant. h [10 μM] % Inhibition at least 50%? input: CN(C)C(c1ccc(F)cc1)C1CCC(CNC(=O)COCC2CCCN2S(=O)(=O)c2ccc(Cl)c(Cl)c2)CC1 (centres unmarked)
A. yes (1)

Q. // inclusive: B1R Ant. h [10 μM] % Inhibition at least 50%? input: CN(C)C(c1ccccc1)C1CCC(NC(=O)COC2CCN(S(=O)(=O)c3ccc(Cl)cc3Cl)C2)CC1 (centres unmarked)
A. no (0)

Q. // inclusive: B1R Ant. h [10 μM] % Inhibition at least 50%? input: CN(C)C(c1cccs1)C1CCC(CCNC(=O)COC2CCN(S(=O)(=O)c3ccccc3)CC2)CC1 (centres unmarked)
A. no (0)

Q. // inclusive: B1R Ant. h [10 μM] % Inhibition at least 50%? input: COc1ccc(S(=O)(=O)N2CCCC2COCC(=O)NC2CCC(C(c3cccc(F)c3)N(C)C)CC2)cc1 (centres unmarked)
A. no (0)

Q. // inclusive: B1R Ant. h [10 μM] % Inhibition at least 50%? input: COc1cc(C)c(S(=O)(=O)N(C)CCOCC(=O)NCCC2CCC(C(c3ccc(Cl)cc3)N(C)C)CC2)c(C)c1C (centres unmarked)
A. yes (1)

Q. // inclusive: B1R Ant. h [10 μM] % Inhibition at least 50%? input: CN(C)C(c1cccc(F)c1)C1CCC(CCNC(=O)COC2CCN(S(=O)(=O)c3ccc(F)cc3)C2)CC1 (centres unmarked)
A. no (0)

Q. // inclusive: B1R Ant. h [10 μM] % Inhibition at least 50%? input: Cc1cc(C)c(S(=O)(=O)N2CCC(OCC(=O)NCC3CCC(C(c4ccc(F)cc4)N(C)C)CC3)C2)c(C)c1 (centres unmarked)
A. yes (1)

Q. // inclusive: B1R Ant. h [10 μM] % Inhibition at least 50%? input: COc1ccc(S(=O)(=O)N2CCCC2COCC(=O)NCCC2CCC(C(c3ccc(F)cc3)N(C)C)CC2)cc1 (centres unmarked)
A. no (0)

Q. // inclusive: B1R Ant. h [10 μM] % Inhibition at least 50%? input: CN(C)C(c1ccc(F)cc1)C1CCC(NC(=O)COCC2CCCN2S(=O)(=O)c2ccc(Cl)c(Cl)c2)CC1 (centres unmarked)
A. yes (1)

Q. // inclusive: B1R Ant. h [10 μM] % Inhibition at least 50%? input: COc1cc(C)c(S(=O)(=O)N(CCOCC(=O)NC2CCC(C(c3cccc(F)c3)N(C)C)CC2)Cc2ccccc2)c(C)c1C (centres unmarked)
A. no (0)

Q. // inclusive: B1R Ant. h [10 μM] % Inhibition at least 50%? input: Cc1ccc(S(=O)(=O)N(C)CCOCC(=O)NC2CCC(C(c3cccs3)N(C)C)CC2)cc1 (centres unmarked)
A. no (0)

Q. // inclusive: B1R Ant. h [10 μM] % Inhibition at least 50%? input: Cc1ccc(S(=O)(=O)N2CCC(OCC(=O)NCCC3CCC(C(c4cccs4)N(C)C)CC3)C2)cc1 (centres unmarked)
A. no (0)

Q. // inclusive: B1R Ant. h [10 μM] % Inhibition at least 50%? input: CN(C)C(c1ccc(F)cc1)C1CCC(CNC(=O)COCCN(C)S(=O)(=O)c2c(Cl)cc(Cl)cc2Cl)CC1 (centres unmarked)
A. yes (1)
